Protocol Summary: qHTS assay to identify aromatase inhibitors - cell viability counter screen (AID 743084);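 also: cells stimulated with testosterone during compound exposure; nearly all actives have a fitted effect of over 55% in size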
Condition Summary: MCF-7 aro ERE viability, CellTiter-Fluor, 24 h; series mostly up to 70.3 µM
Records with an inconclusive call do not appear. The source made the active and inactive calls. Calls follow the shape of the dose curve; as a rule, active = well fitted cell-killing curve with a large enough effect in the repeat runs; inconclusive = weak or mixed curves, or effect the other way; inactive = no such curve, though single readings can be large or run the other way.
Answer with one of the outcomes label 1 for active, label 0 for inactive

Molecule	Category
CCOc1ccc2nc(S(N)(=O)=O)sc2c1	label 0
CCCCc1ccc2c(n1)[C@@H](c1ccc(OC)cc1C[C@H](C)C(=O)O)[C@H](C(=O)O)[C@H]2c1ccc2c(c1)OCO2	label 0
COc1cc(-c2ccc(=O)[nH]n2)ccc1OC(F)F	label 0
O=C1CCCCCCCCCCCCCCO1	label 0
CCCCCCCCCC[N+](C)(C)[O-]	label 0
Nc1ccn([C@@H]2O[C@H](CO)[C@@H](O)C2(F)F)c(=O)n1	label 0

## Input Please indicate how the test categorized `O=C(O)CNC(=O)c1ccccc1` .
## Output label 0

## Input Outcome logged for `CC(C)=CCC/C(C)=C/C#N` in this assay:
## Output label 0

## Input What did this assay record as the result for `CCCCOCCOC(=O)CCCCCCCCC(=O)OCCOCCCC` ?
## Output label 0

## Input Tell me the assay call for `CC(C)c1ccc2ncccc2c1` please.
## Output label 0

## Input What was the test verdict on `CCNS(=O)(=O)c1ccc(C)cc1` ?
## Output label 0

## Input Assay outcome for CC/C=C\CCOC(C)OCC (configuration not stated) : what was it?
## Output label 0

* * *

Test System: Aryl hydrocarbon receptor (Homo sapiens)
Protocol Summary: qHTS assay to identify small molecule that activate the aryl hydrocarbon receptor (AhR) signaling pathway (AID 743085);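 also: HG2L7.5c1 human HepG2 liver cells with stably integrated DRE-driven firefly reporter; nearly all actives have a fitted effect of over 15% in size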
Condition Summary: HepG2 AhR-luc (HG2L7.5c1), luciferase, 24 h; series mostly up to 70.3 µM
Results filed as inconclusive are left out. Calls of active or inactive are those of the source. Calls follow the shape of the dose curve; as a rule, active = well fitted activation curve with a large enough effect in the repeat runs; inconclusive = weak or mixed curves; inactive = no such curve, though single readings can be large or run the other way.
Readout Name: outcome

                                   compound  readout_name    result
0  CCCCc1nc(Cl)c(CO)n1Cc1ccc(-c2ccccc2-c2nn[nH]n2)cc1       outcome  inactive
1                      c1ccc(CCc2ccccc2)cc1       outcome  inactive
2                           O=Cc1cccc(Br)c1       outcome  inactive
3  CCC(C)(CCCC(C)C)OC(C)=O (stereo not drawn)       outcome  inactive

Please look at the items below and tell me outcome for each one, in order.
1. O=C(O)Cc1csc(-c2ccc(Cl)cc2)n1
2. C[C@H]1C[C@H]2[C@@H]3CCC4=CC(=O)C=C[C@]4(C)[C@H]3C(=O)C[C@]2(C)[C@@]1(O)C(=O)CO
3. Clc1cc(Cl)cc(Cl)c1
4. C[N+]1(C)CCCC(OC(=O)C(O)(c2ccccc2)c2ccccc2)C1 (stereo not drawn)
5. Cc1ncc(COP(=O)(O)O)c(C=O)c1O
6. CC1=CCC(O)(C(C)C)CC1 (stereo not drawn)
7. CC12CCC(C(=O)C1=O)C2(C)C (stereo not drawn)

## Output
["inactive", "inactive", "inactive", "inactive", "inactive", "inactive", "inactive"]

I would be grateful if you could provide outcome for each of the following entries.
1. CCCCCC(C)N (stereo not drawn)
2. CN(C)C(=O)Oc1ccc[n+](C)c1

## Output
1: inactive; 2: inactive
